Parameter MIC: see the listing below.
system: Staphylococcus aureus; assay: Antibacterial activity against Staphylococcus aureus RN4220 by twofold agar dilution method; format: functional

QUERY_SMILES	MIC [µg/mL]
CN[C@@H]1[C@@H](O)[C@@H](O[C@@H]2[C@@H](O)[C@H](O[C@H]3O[C@H]([C@@H](C)NC)CC[C@H]3N)[C@@H](N)C[C@H]2N)OC[C@]1(C)O	0.25
NCCNC(=O)O[C@@H]1[C@@H](O)[C@H](NC(=O)[C@@H](O)CCN)C[C@H](N)[C@H]1O[C@H]1O[C@H](CN)CC[C@H]1N	2
NCCNC(=O)O[C@@H]1[C@@H](O)[C@H](O[C@H]2O[C@H](CN)CC[C@H]2N)[C@@H](N)C[C@H]1NC(=O)[C@@H](O)CCN	8
